Just for reference, PubChem BioAssay AID434987 is where these values come from.

- System: M. tuberculosis H37Rv growth inhibition with meropenem
- MEASUREMENT_DESCRIPTION: dose response, H37Rv, with and without meropenem (AID 434987);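 further: growth over 7 days at 37 °C before Alamar Blue read on day 9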
- TEST_CONDITIONS: measured here: IC90 with meropenem
OBSERVED_PROPERTY: IC90

Examples with answers:
Reported IC90 ( Cc1ccccc1OCC(=O)Nc1ccccc1-c1ccccc1 ) = > 100 µM

Reported IC90 ( CCOC(=O)Cn1nc(-c2ccc(C)cc2)c2ccccc2c1=O ) = > 50 µM

Reported IC90 ( COc1cc(NC(=O)C2CCCCC2)c(OC)cc1NC(=O)CN1CCCCC1 ) = > 100 µM

Reported IC90 ( CCOC(=O)N1CCN(CC(=O)Nc2nnc(C(F)(F)F)s2)CC1 ) = 50.1 µM

Reported IC90 ( CC(=O)c1ccc(NC(=S)Nc2ccc(N3CCOCC3)cc2)cc1 ) = > 100 µM

Others:
Reported IC90 ( COC(=O)CNC(c1ccccc1Cl)c1cc(Br)ccc1NC(=O)CCN1CCOCC1 (stereo unspecified) ) = 34.3 µM

Reported IC90 ( CC/C(=N\NC(=O)c1ccc(-c2ccccc2)cc1)C12CC3CC(CC(C3)C1)C2 ) = 43.7 µM

Reported IC90 ( CSc1nc(-c2ccc(Cl)cc2)nn1S(=O)(=O)c1ccccc1 ) = > 100 µM

Reported IC90 ( Cn1c2ccccc2c(=O)c2cc(C#CC3(O)CCCCC3)ccc21 ) = > 100 µM

Reported IC90 ( CC(C(=O)Nc1sc2c(c1C(=O)NCc1ccco1)CCCC2)N1C(=O)c2ccccc2C1=O (stereo unspecified) ) = > 100 µM

Reported IC90 ( NS(=O)(=O)c1ccc(Sc2nc3ccccc3s2)c([N+](=O)[O-])c1 ) = > 100 µM

---

- Tested on: M. tuberculosis H37Rv growth inhibition with meropenem
- MEASUREMENT_DESCRIPTION: dose response, H37Rv, with and without meropenem (AID 434987);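 further: growth over 7 days at 37 °C before Alamar Blue read on day 9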
- TEST_CONDITIONS: M. tuberculosis H37Rv growth inhibition; measured here: IC50 without meropenem
OBSERVED_PROPERTY: IC50

Examples with answers:
The compound CCC(=O)Nc1cc(OC)c(NC(=O)c2ccccc2)cc1OC , when measured on M. tuberculosis H37Rv growth inhibition with meropenem, yielded IC50 of 93.4 µM

The compound COc1cc(/C(C)=N\NC(N)=S)cc(OC)c1OC , when measured on M. tuberculosis H37Rv growth inhibition with meropenem, yielded IC50 of > 100 µM

Others:
The compound Cn1c(/C=C/c2ccc(Cl)cc2)c([N+](=O)[O-])c(=O)n(C)c1=O , when measured on M. tuberculosis H37Rv growth inhibition with meropenem, yielded IC50 of > 100 µM

The compound Cc1cc(C)c(N=Cc2c(O)n(-c3nccs3)c(=O)c3ccccc23)c(C)c1 , when measured on M. tuberculosis H37Rv growth inhibition with meropenem, yielded IC50 of > 100 µM

The compound O=C(CSc1ncnc2c1cnn2-c1ccccc1)Nc1ccc2c(c1)OCO2 , when measured on M. tuberculosis H37Rv growth inhibition with meropenem, yielded IC50 of 49.1 µM

The compound CC(C)(C)C1=Nn2c(nnc2-c2ccccc2F)SC1 , when measured on M. tuberculosis H37Rv growth inhibition with meropenem, yielded IC50 of > 100 µM

---

Entries annotated with measured IC50
- System: M. tuberculosis H37Rv growth inhibition with meropenem
- MEASUREMENT_DESCRIPTION: dose response, H37Rv, with and without meropenem (AID 434987);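 further: growth over 7 days at 37 °C before Alamar Blue read on day 9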
- TEST_CONDITIONS: M. tuberculosis H37Rv growth inhibition; measured here: IC50 without meropenem
I only need the number, in µM, no unit after it.

Reported IC50 ( CC/C(=N\NC(=O)c1ccc(-c2ccccc2)cc1)C12CC3CC(CC(C3)C1)C2 ) = 41.1

Reported IC50 ( CCN(CC)CCCNC(=O)c1c(O)c2ccccc2n(Cc2ccccc2)c1=O ) = 23.2

Others:
Reported IC50 ( Cc1ccc(-n2c(SCC(=O)OC(C)C)nnc2-c2ccco2)cc1 ) = 62
